test system: HT29 colon; assay: NCI-60 one-dose screen, 48 h; settings: 10 µM
About 83,000 compounds went through this panel and 20% of them were active in at least one assay; those are over-represented in the sample as a whole. Active and inactive are the calls of the source. The calls were made as follows: active = growth percent below 10; inactive = the rest.
Possible outcomes: active, inactive

{"Molecule": "N#Cc1c(Cl)nc(SCc2ccc(F)cc2)nc1-c1ccc(F)cc1", "Study target": "HT29 colon", "Assigned class": "inactive"}
{"Molecule": "COc1cc(/C=C/C(=O)c2ccc(S(=O)(=O)NCCNc3nc(Nc4ccc(F)cc4)nc(N(C)C)n3)cc2)cc(OC)c1OC", "Study target": "HT29 colon", "Assigned class": "active"}
{"Molecule": "CCC(C)S(=O)(=O)c1oc(-c2ccc(C)cc2)nc1S(=O)(=O)c1ccccc1 (centres undefined)", "Study target": "HT29 colon", "Assigned class": "active"}
{"Molecule": "O=C(COc1ccc(NC(=O)Nc2ccc(Cl)cc2)cc1)N=Nc1c(O)[nH]c2ccc([N+](=O)[O-])cc12", "Study target": "HT29 colon", "Assigned class": "inactive"}
{"Molecule": "COc1ccc2cc([C@H](C)C(=O)NCc3ccccc3)ccc2c1", "Study target": "HT29 colon", "Assigned class": "active"}
{"Molecule": "Cc1ccc2nc(-c3ccc(-c4nnc(SCC(=O)Nc5ccc(Cl)cc5)o4)cc3)[nH]c2c1", "Study target": "HT29 colon", "Assigned class": "inactive"}
{"Molecule": "C/C(=N\\NC(N)=S)c1ccc(Nc2nc(SC(C)C)nc(-c3ccccc3)c2C#N)cc1", "Study target": "HT29 colon", "Assigned class": "inactive"}
{"Molecule": "CCCn1c(=O)c2[nH]c(-c3ccc(OCc4nc5ccc(C(F)(F)F)cc5[nH]4)cc3)nc2n(CCC)c1=O", "Study target": "HT29 colon", "Assigned class": "inactive"}
{"Molecule": "COc1ccc2nc(Nc3cccc(NC(=O)c4ccc(CN5CCN(C)CC5)c(C(F)(F)F)c4)c3)ccc2c1", "Study target": "HT29 colon", "Assigned class": "active"}
